- Target Under Test: recombinant human HDAC6 (Homo sapiens)
- Sequence (Q9UBN7 whole entry): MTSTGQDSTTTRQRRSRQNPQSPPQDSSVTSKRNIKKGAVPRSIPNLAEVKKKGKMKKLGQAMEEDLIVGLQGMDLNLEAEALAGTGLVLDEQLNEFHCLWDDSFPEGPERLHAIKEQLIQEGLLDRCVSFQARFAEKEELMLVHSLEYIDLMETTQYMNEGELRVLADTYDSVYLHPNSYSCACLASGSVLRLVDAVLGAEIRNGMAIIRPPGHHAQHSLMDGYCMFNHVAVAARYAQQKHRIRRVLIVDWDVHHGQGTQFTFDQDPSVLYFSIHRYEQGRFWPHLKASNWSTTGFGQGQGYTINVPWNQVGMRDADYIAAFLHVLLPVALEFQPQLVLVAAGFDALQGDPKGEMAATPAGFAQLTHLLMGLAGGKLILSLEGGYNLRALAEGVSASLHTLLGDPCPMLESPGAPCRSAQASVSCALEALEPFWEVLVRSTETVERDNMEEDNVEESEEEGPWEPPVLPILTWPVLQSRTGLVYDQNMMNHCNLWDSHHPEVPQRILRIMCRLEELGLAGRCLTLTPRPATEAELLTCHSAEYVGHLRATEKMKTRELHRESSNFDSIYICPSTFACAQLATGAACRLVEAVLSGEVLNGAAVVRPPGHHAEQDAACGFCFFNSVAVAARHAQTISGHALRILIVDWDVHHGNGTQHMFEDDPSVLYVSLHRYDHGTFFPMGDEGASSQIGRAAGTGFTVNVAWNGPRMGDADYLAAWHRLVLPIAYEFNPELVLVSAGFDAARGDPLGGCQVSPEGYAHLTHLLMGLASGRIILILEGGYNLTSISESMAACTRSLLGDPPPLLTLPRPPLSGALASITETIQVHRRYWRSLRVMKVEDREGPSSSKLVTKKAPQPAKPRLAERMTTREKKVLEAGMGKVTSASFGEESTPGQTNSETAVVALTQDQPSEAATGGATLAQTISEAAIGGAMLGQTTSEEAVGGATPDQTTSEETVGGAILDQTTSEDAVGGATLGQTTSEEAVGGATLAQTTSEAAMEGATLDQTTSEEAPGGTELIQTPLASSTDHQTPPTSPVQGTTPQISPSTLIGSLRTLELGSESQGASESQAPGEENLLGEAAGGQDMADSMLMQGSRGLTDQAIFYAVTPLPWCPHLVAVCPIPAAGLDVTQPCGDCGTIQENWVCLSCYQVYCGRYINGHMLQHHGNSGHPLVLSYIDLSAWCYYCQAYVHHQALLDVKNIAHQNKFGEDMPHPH
- Procedure Summary: biochemical
Endpoint Label: IC50 (nM)

>  <Record Smiles>
CC[C@H](C)[C@H]1NC(=O)[C@H]2CSSCC/C=C/[C@H](CC(=O)N[C@H](CCSC)C(=O)N2)OC(=O)C[C@@H]1O

>  <Endpoint Label>
IC50

>  <Measurement>
380

$$$$

----------
- Target Under Test: recombinant human HDAC7 (Homo sapiens)
- Sequence (Q8WUI4 whole entry): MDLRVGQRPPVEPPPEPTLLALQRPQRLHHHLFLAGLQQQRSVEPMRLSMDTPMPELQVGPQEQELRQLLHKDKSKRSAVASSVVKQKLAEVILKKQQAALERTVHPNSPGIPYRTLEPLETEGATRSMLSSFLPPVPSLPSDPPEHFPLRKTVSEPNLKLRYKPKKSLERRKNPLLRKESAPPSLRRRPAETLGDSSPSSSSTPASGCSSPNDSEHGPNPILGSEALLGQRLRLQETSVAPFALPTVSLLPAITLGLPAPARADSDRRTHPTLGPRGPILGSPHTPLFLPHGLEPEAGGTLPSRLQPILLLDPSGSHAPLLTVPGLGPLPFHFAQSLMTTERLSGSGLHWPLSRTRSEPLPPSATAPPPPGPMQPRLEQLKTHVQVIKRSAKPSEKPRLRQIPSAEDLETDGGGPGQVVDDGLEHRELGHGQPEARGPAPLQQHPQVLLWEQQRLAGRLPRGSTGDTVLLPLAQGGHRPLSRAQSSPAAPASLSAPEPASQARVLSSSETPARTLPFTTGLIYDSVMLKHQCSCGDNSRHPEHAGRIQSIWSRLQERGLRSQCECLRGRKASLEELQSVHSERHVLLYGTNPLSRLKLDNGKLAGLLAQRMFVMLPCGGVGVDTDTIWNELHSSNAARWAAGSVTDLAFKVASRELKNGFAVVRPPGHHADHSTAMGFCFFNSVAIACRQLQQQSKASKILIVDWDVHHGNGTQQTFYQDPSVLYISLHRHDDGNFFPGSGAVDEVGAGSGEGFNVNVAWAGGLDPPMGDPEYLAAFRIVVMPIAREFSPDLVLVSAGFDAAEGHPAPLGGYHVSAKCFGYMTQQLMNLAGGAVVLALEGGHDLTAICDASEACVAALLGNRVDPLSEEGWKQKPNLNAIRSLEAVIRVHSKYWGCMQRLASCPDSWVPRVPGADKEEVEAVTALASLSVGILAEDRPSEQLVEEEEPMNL
- Procedure Summary: biochemical
pIC50: −log10 of the molar value.

>  <Compound>
C/C=C1\NC(=O)[C@H]2CSSCC/C=C/[C@H](CC(=O)N[C@H](C(C)C)C(=O)N2)OC(=O)[C@H](C(C)C)NC1=O [Compound 2, FK228, reference compound]

>  <pIC50>
5.49

$$$$
>  <Compound>
CC[C@H](C)[C@H]1NC(=O)[C@H]2CSSCC/C=C/[C@H](CC(=O)N[C@H](CCSC)C(=O)N2)OC(=O)C[C@@H]1O [Compound 6, thailandepsin A]

>  <pIC50>
4.96

$$$$

----------
- Target Under Test: recombinant human HDAC9 (Homo sapiens, UniProt Q9UKV0)
- Sequence (Q9UKV0 whole entry): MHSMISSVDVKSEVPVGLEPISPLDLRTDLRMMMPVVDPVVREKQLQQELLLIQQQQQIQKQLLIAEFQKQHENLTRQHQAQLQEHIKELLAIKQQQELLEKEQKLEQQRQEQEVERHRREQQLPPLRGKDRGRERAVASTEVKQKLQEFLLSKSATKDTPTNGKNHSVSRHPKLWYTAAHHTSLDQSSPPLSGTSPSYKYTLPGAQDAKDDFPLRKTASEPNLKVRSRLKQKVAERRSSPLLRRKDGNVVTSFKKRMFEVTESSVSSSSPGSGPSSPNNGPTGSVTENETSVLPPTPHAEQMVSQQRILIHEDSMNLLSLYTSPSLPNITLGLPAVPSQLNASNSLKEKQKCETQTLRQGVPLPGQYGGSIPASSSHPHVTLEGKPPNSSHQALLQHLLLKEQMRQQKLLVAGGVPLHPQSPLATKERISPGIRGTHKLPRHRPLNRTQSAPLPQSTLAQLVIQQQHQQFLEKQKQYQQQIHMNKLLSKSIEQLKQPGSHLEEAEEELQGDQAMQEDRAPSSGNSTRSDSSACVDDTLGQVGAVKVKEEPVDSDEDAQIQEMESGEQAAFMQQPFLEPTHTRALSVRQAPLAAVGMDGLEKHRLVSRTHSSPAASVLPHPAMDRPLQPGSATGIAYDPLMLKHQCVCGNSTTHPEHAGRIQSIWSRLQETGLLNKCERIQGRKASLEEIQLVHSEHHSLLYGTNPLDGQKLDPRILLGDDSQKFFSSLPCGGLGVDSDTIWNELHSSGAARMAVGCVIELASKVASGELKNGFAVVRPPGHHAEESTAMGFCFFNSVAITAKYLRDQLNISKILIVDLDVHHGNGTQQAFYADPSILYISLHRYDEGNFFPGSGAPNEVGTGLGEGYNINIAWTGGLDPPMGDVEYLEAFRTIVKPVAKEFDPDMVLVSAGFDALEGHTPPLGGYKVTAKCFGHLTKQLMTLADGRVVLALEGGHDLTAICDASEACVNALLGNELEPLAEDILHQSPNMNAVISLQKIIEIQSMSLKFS
- Procedure Summary: biochemical

>  <Record Smiles>
CC[C@H](C)[C@H]1NC(=O)[C@H]2CSSCC/C=C/[C@H](CC(=O)N[C@H](CCSC)C(=O)N2)OC(=O)C[C@@H]1O

>  <Target Under Test>
recombinant human HDAC9 (Homo sapiens, UniProt Q9UKV0)

>  <IC50, µM>
12

$$$$

----------
- Target Under Test: recombinant human HDAC8 (Homo sapiens, UniProt Q9BY41)
- Sequence (Q9BY41 whole entry): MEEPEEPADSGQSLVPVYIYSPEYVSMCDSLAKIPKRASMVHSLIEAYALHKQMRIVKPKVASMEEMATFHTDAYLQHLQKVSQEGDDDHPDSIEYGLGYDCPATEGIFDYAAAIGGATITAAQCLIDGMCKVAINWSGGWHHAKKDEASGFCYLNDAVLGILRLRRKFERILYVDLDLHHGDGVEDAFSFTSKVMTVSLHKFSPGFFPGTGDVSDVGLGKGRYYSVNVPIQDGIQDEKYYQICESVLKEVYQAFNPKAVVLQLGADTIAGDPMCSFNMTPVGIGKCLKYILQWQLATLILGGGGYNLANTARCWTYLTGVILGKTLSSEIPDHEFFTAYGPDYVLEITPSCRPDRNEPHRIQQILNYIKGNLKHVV
- Procedure Summary: biochemical
pIC50: −log10 of the molar value.
Endpoint Label: pIC50

>  <Compound>
CC[C@H](C)[C@H]1NC(=O)[C@H]2CSSCC/C=C/[C@H](CC(=O)N[C@H](CCSC)C(=O)N2)OC(=O)C[C@@H]1O [Compound 6, thailandepsin A]

>  <Measurement>
5.92

$$$$

----------
- Target Under Test: recombinant human HDAC2 (Homo sapiens)
- Sequence (Q92769 whole entry): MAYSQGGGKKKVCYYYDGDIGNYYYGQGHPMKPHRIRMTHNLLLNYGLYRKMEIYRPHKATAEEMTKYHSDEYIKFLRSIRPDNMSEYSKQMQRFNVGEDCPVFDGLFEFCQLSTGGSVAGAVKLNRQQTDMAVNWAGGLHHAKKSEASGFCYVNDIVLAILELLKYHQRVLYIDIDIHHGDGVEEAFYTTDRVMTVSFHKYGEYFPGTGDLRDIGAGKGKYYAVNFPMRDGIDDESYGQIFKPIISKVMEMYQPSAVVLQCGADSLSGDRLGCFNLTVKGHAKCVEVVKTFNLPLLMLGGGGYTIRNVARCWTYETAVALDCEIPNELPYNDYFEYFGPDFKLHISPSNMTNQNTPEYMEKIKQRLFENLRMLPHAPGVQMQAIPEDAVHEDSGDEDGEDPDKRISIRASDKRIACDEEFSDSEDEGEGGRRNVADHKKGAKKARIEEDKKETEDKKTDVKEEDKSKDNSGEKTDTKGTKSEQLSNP
- Procedure Summary: Two-step fluorogenic HDAC inhibition assay, HDAC2
pIC50: −log10 of the molar value.

>  <Record Smiles>
CC[C@H](C)[C@H]1NC(=O)[C@H]2CSSCC/C=C/[C@H](CC(=O)N[C@H](CCSC)C(=O)N2)OC(=O)C[C@@H]1O

>  <Target Under Test>
recombinant human HDAC2 (Homo sapiens)

>  <pIC50>
8.46

$$$$

----------
- Target Under Test: HDAC3 (in complex with N-CoR2) (Homo sapiens, UniProt O15379)
- Sequence (O15379 whole entry): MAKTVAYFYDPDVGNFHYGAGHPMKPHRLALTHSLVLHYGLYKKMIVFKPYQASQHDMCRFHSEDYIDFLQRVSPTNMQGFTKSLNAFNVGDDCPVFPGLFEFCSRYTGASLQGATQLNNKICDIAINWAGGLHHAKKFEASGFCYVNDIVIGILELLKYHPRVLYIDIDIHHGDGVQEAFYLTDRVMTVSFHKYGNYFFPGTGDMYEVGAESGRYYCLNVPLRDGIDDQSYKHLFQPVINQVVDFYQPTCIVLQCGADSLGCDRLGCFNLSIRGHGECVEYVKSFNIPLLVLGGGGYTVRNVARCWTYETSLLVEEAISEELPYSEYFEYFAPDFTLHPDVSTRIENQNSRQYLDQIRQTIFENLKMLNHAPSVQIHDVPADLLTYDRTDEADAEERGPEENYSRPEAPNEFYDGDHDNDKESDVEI
- Sequence (Q9Y618 395-489 partner limits assumed): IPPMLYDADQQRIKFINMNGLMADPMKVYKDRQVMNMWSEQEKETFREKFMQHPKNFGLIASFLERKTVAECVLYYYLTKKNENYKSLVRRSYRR
- Procedure Summary: biochemical
pIC50: −log10 of the molar value.
Endpoint Label: pIC50

>  <Record Smiles>
CC[C@H](C)[C@H]1NC(=O)[C@H]2CSSCC/C=C/[C@H](CC(=O)N[C@H](CCSC)C(=O)N2)OC(=O)C[C@@H]1O

>  <Endpoint Label>
pIC50

>  <Measurement>
8.32

$$$$

The origin of these recorded values is paper PMC3204160.
